In this section we review reported pIC50 values for a set of compounds.
molecular target: HIS-KRAS(G12C) (Homo sapiens (Human), UniProt P01116, G12C); assay: SOS1 catalyzed nucleotide exchange assay (TR-FRET); details: GDP-loaded HIS-KRAS(G12C), 1 hour pre-incubation, TR-FRET
Sequence (P01116 other isoform, or with tags, fused parts or gaps G12C): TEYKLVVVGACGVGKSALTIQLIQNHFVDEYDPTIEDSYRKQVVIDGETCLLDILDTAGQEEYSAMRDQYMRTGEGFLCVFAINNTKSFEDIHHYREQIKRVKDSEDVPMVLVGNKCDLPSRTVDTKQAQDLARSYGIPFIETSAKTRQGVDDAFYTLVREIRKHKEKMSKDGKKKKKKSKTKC
pIC50 is defined as minus the log10 of a concentration measured in mol/L.

These solved cases illustrate the format of a correct answer.
>>> value_observed("C=CC(=O)N1[C@H](C)CN(c2nc(=O)n(-c3c(C)ccnc3C(C)C)c3nc(-c4c(N)c(F)c(F)c(F)c4F)c(F)cc23)C[C@@H]1C [Compound 5]")
8.27
>>> value_observed("C=CC(=O)N1CCN(c2nc(=O)n(-c3c(C)ccnc3C(C)C)c3nc(-c4c(N)c(F)c(F)c(F)c4F)c(F)cc23)C[C@H]1C (single isomer, unassigned) [Compound 4-2]")
6.56
>>> value_observed("C=CC(=O)N1[C@H](C)CN(c2nc(=O)n(-c3c(C)ccnc3C(C)C)c3nc(-c4c(F)c(F)c(F)c(N)c4Cl)c(F)cc23)C[C@@H]1C (single isomer, unassigned) [Compound 7-2]")
6.51

// pIC50 lookup, key: C=CC(=O)N1CCN(c2nc(=O)n(-c3c(C)ccnc3C(C)C)c3nc(-c4c(N)c(F)c(F)c(F)c4F)c(F)cc23)[C@@H](C)C1 (atropisomer, axis not shown; (P)) [Compound 2-2]
7.21

Now consider C=CC(=O)N1CCN(c2nc(=O)n(-c3c(C)ccnc3C(C)C)c3nc(-c4c(N)c(F)c(F)c(F)c4F)c(F)cc23)[C@@H](C)C1 [Compound 2] and answer again.
8.69

---

Experiment: Cynomolgus monkey pharmacokinetic study
Type: in vivo
Details: plasma; cynomolgus monkey, female, 3 mg/kg, po; read-out: Cmax
Experimental: The purpose of this study was to evaluate the pharmacokinetic properties of compounds in cynomolgus monkey following single dose administration. The day before administration, monkeys were fasted overnight and free access to water. Four monkeys are needed for each compound and the four monkeys were divided into two groups, group A and group B (one male (♂) and one female (♀) in each group). […] The concentration of compound in plasma samples was determined using a LC-MS/MS method.
REPORTED_METRIC: Cmax (ng/mL)
Give the value, in units of ng/mL, as a plain number.

// Cmax lookup, key: C=CC(=O)N1CCN(c2nc(=O)n(-c3c(C)ccnc3C(C)C)c3nc(-c4c(O)cccc4F)c(F)cc23)[C@@H](C)C1 [Amg-510, reference compound]
100

---

In this section we review reported AUC(0-t) values for a set of compounds.
assay: Mouse pharmacokinetic study; assay type: in vivo, Balb/c mouse; conditions: plasma; Balb/c mouse (female), 10 mg/kg, po; read-out: AUC0-24 h
Give the value, in units of ng·h/mL, as a plain number.

>>> value_observed("C=CC(=O)N1CCN(c2nc(=O)n(-c3c(C)ccnc3C(C)C)c3nc(-c4c(N)c(F)c(F)c(F)c4F)c(F)cc23)[C@@H](C)C1")
1150

// AUC(0-t) lookup, key: C=CC(=O)N1CCN(c2nc(=O)n(-c3c(C)ccnc3C(C)C)c3nc(-c4c(O)cccc4F)c(F)cc23)[C@@H](C)C1 [Amg-510, reference compound]
1810
